Data credit: the supplement of paper PMC7125110

B1: glmS ribozyme (parent)
chain: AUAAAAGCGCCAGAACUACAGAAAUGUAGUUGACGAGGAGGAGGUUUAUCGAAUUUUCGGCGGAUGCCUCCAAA

Variants of: B1
Assay: self-cleavage kobs at 40 uM GlcN6P; higher = faster cleavage; RNA array
Conditions: with glucosamine-6-phosphate
This sample holds only a part of the variants without activity.
Listed here: items and their measured self-cleavage kobs at 40 uM GlcN6P.

U47C G66U: < 1e-05 s⁻¹
A53C C68A: < 1e-05 s⁻¹
A36G G51U: < 1e-05 s⁻¹

Query G9A A42G G43U C61A yields self-cleavage kobs at 40 uM GlcN6P of < 1e-05 s⁻¹

Query A14C G63A yields self-cleavage kobs at 40 uM GlcN6P of < 1e-05 s⁻¹

Query G37U G43C G66U yields self-cleavage kobs at 40 uM GlcN6P of < 1e-05 s⁻¹

Query G41U G60C yields self-cleavage kobs at 40 uM GlcN6P of < 1e-05 s⁻¹

Query G44C C68G yields self-cleavage kobs at 40 uM GlcN6P of < 1e-05 s⁻¹

Query A6G G13C yields self-cleavage kobs at 40 uM GlcN6P of < 1e-05 s⁻¹

Query A6U A36G A64U yields self-cleavage kobs at 40 uM GlcN6P of < 1e-05 s⁻¹

Query U31C G32A yields self-cleavage kobs at 40 uM GlcN6P of 4.27e-05 s⁻¹

Query A12U A14G C16G yields self-cleavage kobs at 40 uM GlcN6P of 0.000643 s⁻¹
